Provide the reported IC50 of each item.
- subject of test: PI3K α (Homo sapiens, UniProt P42336)
- Sequence (P42336 whole entry): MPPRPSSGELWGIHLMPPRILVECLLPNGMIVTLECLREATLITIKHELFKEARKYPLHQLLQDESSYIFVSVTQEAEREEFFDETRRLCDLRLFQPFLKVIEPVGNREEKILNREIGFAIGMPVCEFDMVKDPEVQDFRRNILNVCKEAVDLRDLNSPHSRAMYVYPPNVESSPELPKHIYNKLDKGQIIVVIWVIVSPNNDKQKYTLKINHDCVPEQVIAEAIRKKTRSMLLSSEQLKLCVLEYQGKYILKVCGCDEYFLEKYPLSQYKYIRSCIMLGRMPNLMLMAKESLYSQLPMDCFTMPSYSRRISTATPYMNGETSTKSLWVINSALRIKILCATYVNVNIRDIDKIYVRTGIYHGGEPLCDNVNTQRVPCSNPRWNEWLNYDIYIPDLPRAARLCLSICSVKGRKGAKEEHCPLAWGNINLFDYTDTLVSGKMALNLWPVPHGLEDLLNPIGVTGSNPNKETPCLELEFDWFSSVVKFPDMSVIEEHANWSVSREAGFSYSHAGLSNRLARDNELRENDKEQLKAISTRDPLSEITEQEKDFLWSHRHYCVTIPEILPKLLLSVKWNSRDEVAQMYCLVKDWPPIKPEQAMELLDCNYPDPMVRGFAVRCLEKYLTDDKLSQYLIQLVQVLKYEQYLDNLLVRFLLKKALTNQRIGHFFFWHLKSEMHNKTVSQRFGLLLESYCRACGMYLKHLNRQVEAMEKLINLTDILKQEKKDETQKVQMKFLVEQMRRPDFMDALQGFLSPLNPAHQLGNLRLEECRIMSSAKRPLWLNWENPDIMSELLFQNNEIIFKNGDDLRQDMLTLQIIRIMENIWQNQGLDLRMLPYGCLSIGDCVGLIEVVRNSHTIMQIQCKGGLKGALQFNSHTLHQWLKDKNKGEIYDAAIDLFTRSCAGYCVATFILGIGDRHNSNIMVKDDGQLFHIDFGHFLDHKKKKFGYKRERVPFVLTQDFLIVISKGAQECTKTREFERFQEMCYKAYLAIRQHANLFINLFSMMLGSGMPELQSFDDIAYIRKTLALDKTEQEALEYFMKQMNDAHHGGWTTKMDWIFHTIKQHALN
- Sequence (P27986 whole entry partner): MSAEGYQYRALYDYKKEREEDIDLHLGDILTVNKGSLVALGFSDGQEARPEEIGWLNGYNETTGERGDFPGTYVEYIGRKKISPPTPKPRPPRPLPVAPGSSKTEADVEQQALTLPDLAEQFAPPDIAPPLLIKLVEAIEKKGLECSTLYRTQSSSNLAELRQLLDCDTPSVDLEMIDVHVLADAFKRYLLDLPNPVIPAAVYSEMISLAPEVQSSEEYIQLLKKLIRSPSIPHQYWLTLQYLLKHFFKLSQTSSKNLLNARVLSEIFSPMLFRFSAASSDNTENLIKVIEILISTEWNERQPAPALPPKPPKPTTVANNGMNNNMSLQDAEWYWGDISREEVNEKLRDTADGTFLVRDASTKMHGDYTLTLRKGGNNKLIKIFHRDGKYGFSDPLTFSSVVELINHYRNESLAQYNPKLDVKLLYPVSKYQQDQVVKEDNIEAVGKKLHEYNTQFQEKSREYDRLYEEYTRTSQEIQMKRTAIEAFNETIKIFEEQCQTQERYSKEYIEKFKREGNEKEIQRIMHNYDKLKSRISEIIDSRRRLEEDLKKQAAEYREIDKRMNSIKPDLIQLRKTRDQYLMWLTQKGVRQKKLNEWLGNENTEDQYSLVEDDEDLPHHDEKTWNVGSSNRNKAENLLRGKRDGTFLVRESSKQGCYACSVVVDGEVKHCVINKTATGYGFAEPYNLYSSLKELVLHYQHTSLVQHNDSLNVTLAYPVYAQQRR
- procedure text: PI 3-Kinase (human) HTRF assay, PI3K α
- test settings: read-out: PI3K α IC50; Table 4

Documented IC50 of Nc1nc2cc(-c3cnc4ccc(N5CCOCC5)nc4c3)ccc2o1 [Compound 624] : < 10000 nM

Documented IC50 of CN1CCN(c2ccc3ncc(-c4ccc5oc(N)nc5c4)cc3n2)CC1 [Compound 631] : < 10000 nM

Documented IC50 of Nc1nc2cc(-c3ccc4ncc(N5CC(N6C7CCC6COC7)C5)cc4n3)ccc2o1 [Compound 618] : < 100 nM

Documented IC50 of C[C@@H]1COCCN1C1CN(c2cnc3ccc(-c4ccc5oc(N)nc5c4)nc3n2)C1 [Compound 600] : < 10000 nM

Documented IC50 of CN1CC2CN(c3cnc4ccc(-c5ccc6oc(N)nc6c5)nc4n3)CC2C1 (stereo not drawn) [Compound 629] : < 100 nM

Documented IC50 of Nc1nc2cc(-c3ccc4ncc(N5CC(N6CC7CCC(C6)O7)C5)nc4n3)ccc2o1 [Compound 571] : < 1000 nM

Documented IC50 of CC(C)N1CCN(C2CN(c3cnc4ccc(-c5ccc6oc(N)nc6c5)nc4n3)C2)CC1 [Compound 628] : < 10000 nM

Documented IC50 of Nc1nc2cc(-c3ccc4ncc(N5CC6CCC(C5)O6)cc4n3)ccc2o1 [Compound 610] : < 100 nM

Documented IC50 of CC1CN(C2CN(c3cnc4ccc(-c5ccc6oc(N)nc6c5)nc4n3)C2)CCO1 (stereo not drawn) [Compound 569] : < 1000 nM

====

Provide the reported pIC50 of each item.
- subject of test: PI3K δ (Homo sapiens, UniProt O00329)
- Sequence (O00329 whole entry): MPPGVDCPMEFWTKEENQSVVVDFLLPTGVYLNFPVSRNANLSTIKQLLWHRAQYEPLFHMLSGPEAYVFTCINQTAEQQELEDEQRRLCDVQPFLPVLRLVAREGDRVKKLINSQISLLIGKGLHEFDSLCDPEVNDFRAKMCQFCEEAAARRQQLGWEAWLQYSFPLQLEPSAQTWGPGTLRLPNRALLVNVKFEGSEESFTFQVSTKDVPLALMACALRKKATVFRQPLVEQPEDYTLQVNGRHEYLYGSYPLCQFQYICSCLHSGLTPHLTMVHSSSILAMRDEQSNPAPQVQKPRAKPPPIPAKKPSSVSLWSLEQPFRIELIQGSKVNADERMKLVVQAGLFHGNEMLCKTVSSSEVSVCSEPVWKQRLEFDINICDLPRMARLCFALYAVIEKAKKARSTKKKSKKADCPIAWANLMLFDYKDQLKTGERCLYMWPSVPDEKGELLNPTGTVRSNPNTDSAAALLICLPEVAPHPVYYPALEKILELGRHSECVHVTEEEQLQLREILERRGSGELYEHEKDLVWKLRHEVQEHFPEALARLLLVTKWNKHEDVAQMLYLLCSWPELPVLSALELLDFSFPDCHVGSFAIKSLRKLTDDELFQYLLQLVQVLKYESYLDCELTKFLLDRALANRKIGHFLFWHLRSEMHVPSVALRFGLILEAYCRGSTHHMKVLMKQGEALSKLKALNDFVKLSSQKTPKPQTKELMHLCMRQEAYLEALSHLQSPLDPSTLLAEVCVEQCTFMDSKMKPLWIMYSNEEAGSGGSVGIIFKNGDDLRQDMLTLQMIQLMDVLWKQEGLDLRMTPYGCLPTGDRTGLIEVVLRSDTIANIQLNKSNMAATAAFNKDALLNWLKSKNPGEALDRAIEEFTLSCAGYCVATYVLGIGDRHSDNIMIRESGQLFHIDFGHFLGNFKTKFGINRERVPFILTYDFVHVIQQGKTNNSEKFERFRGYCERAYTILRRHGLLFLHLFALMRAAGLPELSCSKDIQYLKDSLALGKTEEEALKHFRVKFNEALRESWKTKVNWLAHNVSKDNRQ
- Sequence (P27986 whole entry partner): as the sequence (P27986 whole entry partner) above
- procedure text: PI 3-Kinase (human) HTRF assay, PI3K δ
- test settings: read-out: PI3K δ IC50; Table 4
pIC50: −log10 of the molar value.

// compound Nc1nc2cc(-c3ccc4ncc(N5CC(N6CCN(CC7CC7)CC6)C5)nc4n3)ccc2o1 [Compound 586] , assay PI3K δ (Homo sapiens, UniProt O00329), pIC50 value: > 5.00

// compound CN1CC2CN(c3cnc4ccc(-c5ccc6oc(N)nc6c5)nc4n3)CC2C1 (stereo not drawn) [Compound 629] , assay PI3K δ (Homo sapiens, UniProt O00329), pIC50 value: > 6.00

// compound CCN(CC)c1cnc2ccc(-c3ccc4oc(N)nc4c3)nc2n1 [Compound 577] , assay PI3K δ (Homo sapiens, UniProt O00329), pIC50 value: > 5.00

// compound C[C@@H]1COCCN1c1cnc2ccc(-c3ccc4oc(N)nc4c3)nc2n1 [Compound 565] , assay PI3K δ (Homo sapiens, UniProt O00329), pIC50 value: > 5.00

// compound CCOC(=O)N1CC=C(c2cnc3ccc(-c4ccc5oc(N)nc5c4)nc3n2)CC1 [Compound 560] , assay PI3K δ (Homo sapiens, UniProt O00329), pIC50 value: > 5.00

// compound C[C@@H]1CN(C2CN(c3cnc4ccc(-c5ccc6oc(N)nc6c5)nc4n3)C2)CCN1C [Compound 576] , assay PI3K δ (Homo sapiens, UniProt O00329), pIC50 value: > 5.00

// compound CCN1CCN(C2CN(c3cnc4ccc(-c5ccc6oc(N)nc6c5)nc4n3)C2)CC1 [Compound 627] , assay PI3K δ (Homo sapiens, UniProt O00329), pIC50 value: > 5.00

// compound Nc1nc2cc(-c3ccc4ncc(N5CC(N6CC7CCC(C6)O7)C5)nc4n3)ccc2o1 [Compound 571] , assay PI3K δ (Homo sapiens, UniProt O00329), pIC50 value: < 5.00

// compound Nc1nc2cc(-c3ccc4ncc(-c5cccnc5)cc4n3)ccc2o1 [Compound 567] , assay PI3K δ (Homo sapiens, UniProt O00329), pIC50 value: > 5.00

// compound C[C@H]1CN(C2CN(c3cnc4ccc(-c5ccc6oc(N)nc6c5)nc4n3)C2)CCN1C [Compound 572] , assay PI3K δ (Homo sapiens, UniProt O00329), pIC50 value: > 5.00

// compound CC1CN(C2CN(c3cnc4ccc(-c5ccc6oc(N)nc6c5)nc4n3)C2)CCO1 (stereo not drawn) [Compound 569] , assay PI3K δ (Homo sapiens, UniProt O00329), pIC50 value: < 5.00

// compound NCC(=O)N1CCN(c2cnc3ccc(-c4ccc5oc(N)nc5c4)nc3n2)CC1 [Compound 584] , assay PI3K δ (Homo sapiens, UniProt O00329), pIC50 value: > 5.00

// compound CN1CC2CN(c3cnc4ccc(-c5ccc6oc(N)nc6c5)nc4c3)CC2C1 (stereo not drawn) [Compound 630] , assay PI3K δ (Homo sapiens, UniProt O00329), pIC50 value: > 6.00

// compound Nc1nc2cc(-c3ccc4ncc(N5CC6CCC(C5)O6)cc4n3)ccc2o1 [Compound 610] , assay PI3K δ (Homo sapiens, UniProt O00329), pIC50 value: < 5.00

// compound Cc1nccn1C1CN(c2cnc3ccc(-c4ccc5oc(N)nc5c4)nc3n2)C1 [Compound 601] , assay PI3K δ (Homo sapiens, UniProt O00329), pIC50 value: > 5.00

// compound C[C@H]1COCCN1C1CN(c2cnc3ccc(-c4ccc5oc(N)nc5c4)nc3n2)C1 [Compound 612] , assay PI3K δ (Homo sapiens, UniProt O00329), pIC50 value: > 5.00

// compound C[C@@H]1CN(c2cnc3ccc(-c4ccc5oc(N)nc5c4)nc3n2)CCN1 [Compound 578] , assay PI3K δ (Homo sapiens, UniProt O00329), pIC50 value: > 5.00

// compound CC(C)N1CCN(c2cnc3ccc(-c4ccc5oc(N)nc5c4)nc3n2)CC1 [Compound 583] , assay PI3K δ (Homo sapiens, UniProt O00329), pIC50 value: > 5.00
